Entry source: patent US20220112288A1

- Test System: T1, huCD4-HIS (human, UniProt P01730 26-390, limits assumed)
- T1 construct: the ELISA binning is not described in the text of this stretch
- Protocol: ELISA binning, competitor Ibalizumab; 100 ng/mL huCD4-HIS, anti-HIS HRP detection; background 45, max binding 3000000
For each of the binders below, state its Ibalizumab ELISA binning signal.
Please reply with the number alone, leaving off any unit.

Query: Give the reported value of Ibalizumab ELISA binning signal for this record: 75110_13C13A (antibody, IgG1, V domains shown, Tested as non-clonal AlivaMab Mouse Kappa hybridoma supernatant: human variable domains and human kappa, mouse Fc) VH: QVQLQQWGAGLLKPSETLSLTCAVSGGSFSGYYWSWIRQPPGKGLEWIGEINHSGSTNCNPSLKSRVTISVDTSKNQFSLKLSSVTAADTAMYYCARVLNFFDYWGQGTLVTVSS VL: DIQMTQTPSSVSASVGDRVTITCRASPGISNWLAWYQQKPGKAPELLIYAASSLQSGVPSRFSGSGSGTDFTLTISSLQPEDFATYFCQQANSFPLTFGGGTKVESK
Result: 1.17e+06

Query: Give the reported value of Ibalizumab ELISA binning signal for this record: 75110_14P05A (antibody, V domains shown, Tested as non-clonal AlivaMab Mouse Kappa hybridoma supernatant: human variable domains and human kappa, mouse Fc) VH: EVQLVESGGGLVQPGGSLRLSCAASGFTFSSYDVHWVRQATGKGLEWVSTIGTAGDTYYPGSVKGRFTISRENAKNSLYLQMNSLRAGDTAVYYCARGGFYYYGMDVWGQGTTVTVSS VL: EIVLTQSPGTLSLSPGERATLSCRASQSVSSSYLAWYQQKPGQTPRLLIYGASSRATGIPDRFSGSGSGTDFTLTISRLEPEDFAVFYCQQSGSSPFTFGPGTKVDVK
Result: 710000

Query: Give the reported value of Ibalizumab ELISA binning signal for this record: 75110_04F22A (antibody, V domains shown, Tested as non-clonal AlivaMab Mouse Kappa hybridoma supernatant: human variable domains and human kappa, mouse Fc) VH: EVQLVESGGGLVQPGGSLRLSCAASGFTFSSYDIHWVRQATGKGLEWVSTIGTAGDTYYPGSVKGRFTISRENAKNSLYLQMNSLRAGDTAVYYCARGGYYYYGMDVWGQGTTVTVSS VL: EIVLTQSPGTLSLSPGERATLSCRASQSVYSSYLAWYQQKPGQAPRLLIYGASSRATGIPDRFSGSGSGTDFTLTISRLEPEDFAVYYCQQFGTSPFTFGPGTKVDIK
Result: 748000

Query: Give the reported value of Ibalizumab ELISA binning signal for this record: 75110_01J17A (antibody, IgG1, V domains shown, Tested as non-clonal AlivaMab Mouse Kappa hybridoma supernatant: human variable domains and human kappa, mouse Fc) VH: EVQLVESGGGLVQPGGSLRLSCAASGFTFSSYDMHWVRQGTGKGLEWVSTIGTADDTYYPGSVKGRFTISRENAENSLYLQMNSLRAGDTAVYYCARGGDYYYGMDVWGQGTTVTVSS VL: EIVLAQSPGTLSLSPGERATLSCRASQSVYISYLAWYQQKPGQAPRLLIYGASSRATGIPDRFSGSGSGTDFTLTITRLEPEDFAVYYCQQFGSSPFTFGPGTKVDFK
Result: 755000

Query: Give the reported value of Ibalizumab ELISA binning signal for this record: 75110_12K21A (antibody, V domains shown, Tested as non-clonal AlivaMab Mouse Kappa hybridoma supernatant: human variable domains and human kappa, mouse Fc) VH: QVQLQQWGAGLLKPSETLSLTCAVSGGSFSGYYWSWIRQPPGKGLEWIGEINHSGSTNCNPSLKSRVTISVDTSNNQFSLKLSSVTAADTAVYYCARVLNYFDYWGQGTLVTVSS VL: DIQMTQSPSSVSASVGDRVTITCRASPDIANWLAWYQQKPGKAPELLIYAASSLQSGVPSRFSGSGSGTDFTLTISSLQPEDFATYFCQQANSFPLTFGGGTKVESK
Result: 1.41e+06
